Item-by-item account of GRK6 (Hill slope)
tested_target: GRK6 (Homo sapiens, UniProt P43250, C561S/C562S/C565S)
Construct: Full-length WT GRK5, GRK2, or GRK6 at a final concentration of 2 μM; made in house; host or cells: Sf9 insect cells
Sequence (P43250 whole entry C561S/C562S/C565S): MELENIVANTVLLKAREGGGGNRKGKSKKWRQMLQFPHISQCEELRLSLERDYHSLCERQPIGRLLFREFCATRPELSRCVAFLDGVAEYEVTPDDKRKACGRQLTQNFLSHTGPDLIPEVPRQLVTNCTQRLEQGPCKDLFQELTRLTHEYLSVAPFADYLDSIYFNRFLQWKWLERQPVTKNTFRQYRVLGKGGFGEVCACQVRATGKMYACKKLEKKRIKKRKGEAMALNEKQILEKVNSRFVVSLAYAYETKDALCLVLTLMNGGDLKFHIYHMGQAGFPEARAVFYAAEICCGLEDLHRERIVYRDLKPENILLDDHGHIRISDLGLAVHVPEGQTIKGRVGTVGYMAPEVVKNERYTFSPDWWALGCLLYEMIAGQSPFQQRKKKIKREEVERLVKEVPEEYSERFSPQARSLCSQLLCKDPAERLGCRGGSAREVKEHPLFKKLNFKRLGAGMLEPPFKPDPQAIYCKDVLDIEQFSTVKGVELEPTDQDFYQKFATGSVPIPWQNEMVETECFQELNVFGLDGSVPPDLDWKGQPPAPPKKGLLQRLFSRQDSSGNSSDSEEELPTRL
assay_comment: GRK kinase inhibition assay ([γ-32P]-ATP phosphorylation of tubulin)
Format: biochemical
cond: substrate tubulin
measured_attribute: GRK6 (Hill slope)

>  <compound>
[Cl-].[K+]

>  <measured_attribute>
GRK6 (Hill slope)

>  <numeric_readout>
−2.3

$$$$
>  <compound>
[Cl-].[Na+]

>  <measured_attribute>
GRK6 (Hill slope)

>  <numeric_readout>
−1.3

$$$$
>  <compound>
O.O=C([O-])CC(O)(CC(=O)[O-])C(=O)[O-].[K+].[K+].[K+] [K3Cit, potassium citrate tribasic monohydrate]

>  <measured_attribute>
GRK6 (Hill slope)

>  <numeric_readout>
−0.9

$$$$
>  <compound>
O=C([O-])CC(O)(CC(=O)[O-])C(=O)[O-].[Na+].[Na+].[Na+] [Na3Cit, sodium citrate]

>  <measured_attribute>
GRK6 (Hill slope)

>  <numeric_readout>
−1.2

$$$$

###

tested_target: human GRK5WT (Homo sapiens, UniProt P34947)
Construct: human GRK5WT or GRK5D311N (residues 1–590 followed by a hexahistidine tag); hexahistidine (C); made in house; host or cells: E. coli Rosetta (DE3)
Sequence (P34947 whole entry, the tested form may be a part): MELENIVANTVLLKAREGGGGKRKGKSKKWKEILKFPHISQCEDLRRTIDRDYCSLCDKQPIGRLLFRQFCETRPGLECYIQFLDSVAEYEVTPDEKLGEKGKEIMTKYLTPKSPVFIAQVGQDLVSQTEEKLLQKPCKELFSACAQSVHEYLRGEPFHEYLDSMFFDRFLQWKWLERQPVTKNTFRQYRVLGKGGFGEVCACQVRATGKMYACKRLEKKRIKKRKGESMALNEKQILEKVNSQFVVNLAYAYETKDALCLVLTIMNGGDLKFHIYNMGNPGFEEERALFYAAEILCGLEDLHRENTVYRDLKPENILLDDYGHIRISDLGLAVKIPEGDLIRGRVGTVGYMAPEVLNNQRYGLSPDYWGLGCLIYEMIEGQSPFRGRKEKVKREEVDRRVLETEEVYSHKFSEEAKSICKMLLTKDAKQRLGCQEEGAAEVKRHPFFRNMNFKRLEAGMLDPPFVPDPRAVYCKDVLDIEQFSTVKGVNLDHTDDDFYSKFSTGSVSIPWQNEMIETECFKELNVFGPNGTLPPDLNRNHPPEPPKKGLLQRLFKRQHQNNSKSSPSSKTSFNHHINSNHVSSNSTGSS
assay_comment: GRK kinase inhibition assay ([γ-32P]-ATP phosphorylation of tubulin or Rho*)
Format: biochemical
cond: substrate Rho* (ROS); mean ± SD; read-out: GRK5 IC50
measured_attribute: IC50 (mM)

>  <smiles_string>
[Cl-].[K+]

>  <measured_attribute>
IC50

>  <uom>
mM

>  <numeric_readout>
18

$$$$

###

tested_target: human GRK5WT (Homo sapiens, UniProt P34947)
Construct: human GRK5WT or GRK5D311N (residues 1–590 followed by a hexahistidine tag); hexahistidine (C); made in house; host or cells: E. coli Rosetta (DE3)
assay_comment: GRK kinase inhibition assay ([γ-32P]-ATP phosphorylation of tubulin or Rho*)
Format: biochemical
cond: substrate Rho* (LMNG); mean ± SD; read-out: GRK5 IC50
pIC50: −log10 of the molar value.

>  <smiles_string>
[Cl-].[K+]

>  <pIC50>
1.96

$$$$

###

tested_target: human GRK5WT (Homo sapiens, UniProt P34947)
Construct: human GRK5WT or GRK5D311N (residues 1–590 followed by a hexahistidine tag); hexahistidine (C); made in house; host or cells: E. coli Rosetta (DE3)
assay_comment: GRK kinase inhibition assay ([γ-32P]-ATP phosphorylation of tubulin or Rho*)
Type: biochemical
cond: IC50 (no K3Cit), substrate Rho* in ROS; without K3Cit; mean and SD
Description: GRK inhibition assays were performed in 20 mM Hepes (pH 7.0), 2 mM MgCl2, 0.025% n-dodecyl-β-D-maltoside with 50 nM human GRK5WT as purified previously. […] Reactions were quenched with 4X SDS loading buffer, separated in SDS-PAGE, dried, and read by phosphorimaging and then quantified via a Personal Molecular Imager and Quantity One 1-D Analysis Software. […]

>  <compound>
NC(=O)c1cn([C@@H]2O[C@H](CO)[C@@H](O)[C@H]2O)c2ncnc(N)c12 [Sgv, sangivamycin]

>  <IC50>
4.5 µM

$$$$
